Data provenance: the NIST ThermoML archive (doi:10.1021/je020196d)

Stated conditions: 293.15 K; 101.33 kPa; Liquid
Parameter measured: mass density (kg/m3)

| Structure string | Measurement units | mass density |
| --- | --- | --- |
| CCCCCCCC | kg/m3 | 702.6 |
| CCCCCCCCCC | kg/m3 | 730.2 |
| CCc1ccccc1 | kg/m3 | 867.4 |
| OCCOCCOCCO | kg/m3 | 1127.8 |
| Cc1ccccc1 | kg/m3 | 866.7 |
| CCCCCCCCC | kg/m3 | 717.8 |
| CCCCCCC | kg/m3 | 683.5 |
| c1ccccc1 | kg/m3 | 878.3 |

* * *

Assay info: activity coefficient (dimensionless); of the first substance listed, at infinite dilution; xn = mol fraction of the nth substance listed
Stated conditions: 343.15 K; Liquid; Chromatography; x1 = 0
Parameter measured: activity coefficient

Check out these entries, answers already filled in.
| Compound | Parameter measured | Observed result |
| --- | --- | --- |
| CCCCCCC [heptane] + OCCOCCOCCO | activity coefficient | 71.9 |
| CCCCCCCCC [nonane] + OCCOCCOCCO | activity coefficient | 140 |
| Cc1ccccc1 [toluene] + OCCOCCOCCO | activity coefficient | 6.51 |

A = CCCCCCCCCC [decane] + OCCOCCOCCO
B = CCc1ccccc1 [ethylbenzene] + OCCOCCOCCO
C = c1ccccc1 [benzene] + OCCOCCOCCO
D = CCCCCCCC [octane] + OCCOCCOCCO
-- ask Put the compounds in ascending order of activity coefficient. Please list each label once, in the requested order.
-- reply C, B, D, A

* * *

Assay info: activity coefficient (dimensionless); of the first substance listed, at infinite dilution; xn = mol fraction of the nth substance listed
Stated conditions: 403.15 K; Liquid; Chromatography; x1 = 0
Parameter measured: activity coefficient

Check out these entries, answers already filled in.
| Compound | activity coefficient |
| --- | --- |
| c1ccccc1 [benzene] + OCCOCCOCCOCCO | 2.27 |
| CCCCCCC [heptane] + OCCOCCOCCOCCO | 20.8 |
| Cc1ccccc1 [toluene] + OCCOCCOCCOCCO | 3.21 |
| CCCCCCCCCC [decane] + OCCOCCOCCOCCO | 42.9 |

A = CCc1ccccc1 [ethylbenzene] + OCCOCCOCCOCCO
B = CCCCCCCCC [nonane] + OCCOCCOCCOCCO
-- ask Consider A and B . Which of these has its activity coefficient at a higher number? API: response body contains the label of the selected item.
-- reply B
(B: 34.1, A: 4.35)

* * *

Assay info: activity coefficient (dimensionless); of the first substance listed, at infinite dilution; xn = mol fraction of the nth substance listed
Stated conditions: 353.15 K; Liquid; Chromatography; x1 = 0
Parameter measured: activity coefficient

Check out these entries, answers already filled in.
| Molecule | Observed result |
| --- | --- |
| Cc1ccccc1 [toluene] + OCCOCCOCCOCCO | 4.02 |
| c1ccccc1 [benzene] + OCCOCCOCCOCCO | 2.73 |

A = CCCCCCCCCC [decane] + OCCOCCOCCO
B = c1ccccc1 [benzene] + OCCOCCOCCO
-- ask Consider A and B . Which of these has its activity coefficient at a higher number? API: response body contains the label of the selected item.
-- reply A

* * *

Assay info: activity coefficient (dimensionless); of the first substance listed, at infinite dilution; xn = mol fraction of the nth substance listed
Stated conditions: 353.15 K; Liquid; Chromatography; x1 = 0
Parameter measured: activity coefficient

Check out these entries, answers already filled in.
| Molecule | Observed result |
| --- | --- |
| CCCCCCCCCC [decane] + OCCOCCOCCOCCO | 87.8 |
| Cc1ccccc1 [toluene] + OCCOCCOCCO | 6.25 |

1 = CCCCCCCCC [nonane] + OCCOCCOCCO
2 = CCc1ccccc1 [ethylbenzene] + OCCOCCOCCO
-- ask Lab note: check whether 1 or 2 has the lower measured activity coefficient. API: response body contains the label of the selected item.
-- reply 2
